Listing of recorded melting point by entry.

These solved cases illustrate the format of a correct answer.
>  <compound>
CCN(CC)c1nc(-c2ccc(OC)cc2)nc2sc(C#N)c(C)c12 [Example 10]

>  <melting point>
154 to 156 °C

$$$$
>  <compound>
Cc1c(C#N)sc2nc(-c3ccc(C(F)(F)F)cc3)nc(N3CCN(C)CC3)c12 [Example 33]

>  <melting point>
187 to 189 °C

$$$$

# input Provide melting point value for the following compound: COc1ccc(-c2nc(N3CCOCC3)c3c(C)c(C#N)sc3n2)cc1 [Example 22]
# output 204 to 206 °C

# input Using the record for COc1cc(-c2nc(-n3cncn3)c3c(C)c(C#N)sc3n2)cc(OC)c1OC [Example 91] , state its measured melting point.
# output 236 to 240 °C

# input Return value of melting point for input COc1ccc(-c2nc(N3CCN(C)CC3)c3c(C)c(C#N)sc3n2)cc1 [Example 9] , no commentary.
# output > 250 °C

----------
melting point values, listed per item

Use the examples below as a reference point.
>  <molecule>
CCN(C)c1nc(-c2ccc(C(=O)OC)cc2)nc2sc(C#N)c(C)c12 [Example 57]

>  <melting point>
125 to 128 °C

$$$$
>  <molecule>
CCN(C)c1nc(-c2cc(OC)c(OC)c(OC)c2)nc2sc(C#N)c(C)c12 [Example 39]

>  <melting point>
163 to 164 °C

$$$$
>  <molecule>
Cc1c(C#N)sc2nc(-c3ccncc3)nc(N3CCOCC3)c12 [Example 41]

>  <melting point>
> 250 °C

$$$$
>  <molecule>
Cc1c(C#N)sc2nc(-c3ccc4c(c3)OCO4)nc(N(C)CCO)c12 [Example 43]

>  <melting point>
195 to 197 °C

$$$$
>  <molecule>
CCN(CC)c1nc(-c2ccc(OC)c(OC)c2)nc2sc(C#N)c(C)c12 [Example 20]

>  <melting point>
159 to 161 °C

$$$$

# input Give a short answer stating reported melting point for CNc1nc(Cc2ccc(OC)c(OC)c2)nc2sc(C#N)c(C)c12 [Example 94] .
# output 161 to 163 °C

# input Write down melting point measured for item CCC(C)Nc1nc(-c2cc(OC)c(OC)c(OC)c2)nc2sc(C#N)c(C)c12 (stereo not drawn) [Example 71]
# output 91 to 93 °C

# input Please supply the value of reported melting point for the item COc1cc(-c2nc(NCCC(=O)O)c3c(C)c(C#N)sc3n2)cc(OC)c1OC [Example 87]
# output 222 to 225 °C

# input Answer with the recorded melting point for the molecule listed here: COc1ccc(-c2nc(N3CCCCC3)c3c(C)c(C#N)sc3n2)cc1 [Example 6]
# output 202 to 204 °C

# input Consider the molecule COc1cc(-c2nc(N(C)CCN(C)C)c3c(C)c(C#N)sc3n2)cc(OC)c1OC [Example 107] . State its measured melting point.
# output 125 to 127 °C

# input Quote melting point reported for COc1cc(-c2nc(NC(C)C)c3c(C)c(C#N)sc3n2)cc(OC)c1OC [Example 70] please.
# output 191 to 193 °C

# input For COc1cc(Cc2nc(NC(C)C)c3c(C)c(C#N)sc3n2)cc(OC)c1OC [Example 113] , write its melting point.
# output 143 to 147 °C
